Listed here are compounds together with their documented GI50.
system: HOP-62 NSCLC; experiment: NCI tumour cell line growth inhibition, 48 h
RECORDED ENDPOINT: GI50

{"columns": ["COMPOUND SMILES", "ASSAY RESULT"],
 "data": [
  ["Oc1ccc(CCNc2nc3ccccc3c3[nH]c4ccccc4c23)cc1", "1630 nM"],
  ["Cn1c(=O)c(-c2c(Cl)cccc2Cl)cc2cnc(Nc3ccc(N4CCOCC4)cc3)nc21", "< 10 nM"],
  ["Nc1ccc(N)c2c1C(=O)c1cccc([N+](=O)[O-])c1C2=O", "1620 nM"],
  ["COc1ccc(-c2ccc(/C=N/n3c(COc4ccc(Cl)c(C)c4)nn(CN4CCOCC4)c3=S)o2)c([N+](=O)[O-])c1", "38600 nM"],
  ["COc1ccc(S(=O)(=O)NCCCNc2nccc(-c3c(-c4ccc(F)cc4)nc4sccn34)n2)cc1", "18000 nM"]
]}

* * *

tested on: KM20L2 colon; assay: NCI tumour cell line growth inhibition, 48 h

{"columns": ["COMPOUND", "TGI"],
 "data": [
  ["COC(=O)C1=C(C)C(=O)C2(CCCCCC2C(=O)OC)C1 (stereo not drawn)", "> 100 µM"],
  ["Cc1c(C(=O)C/C(=N/NC(=O)CC#N)C(N)=O)[n+](=O)c2ccccc2n1[O-]", "> 100 µM"],
  ["Cn1ncc2c(c1=O)Nc1ccccc1S2(=O)=O", "> 100 µM"],
  ["CCOC(=O)C1=C(O)c2c(OC)ccc(OC)c2C(=O)C1=O", "> 100 µM"],
  ["CC1=C2[C@@H](c3ccccc3)C3C=CC2(C=C3C(F)(F)F)N(C(=O)NC2CCCCC2)C1=O (stereo partly drawn)", "> 100 µM"],
  ["Cc1nc(-c2cccnc2)sc1C(=O)/C=C/c1ccc(Cl)cc1Cl", "> 100 µM"],
  ["Nc1nc(N)c(-c2ccccc2)c(C(=O)Nc2nccs2)n1", "> 100 µM"],
  ["CCOC(=O)NC/C=C/CO", "> 100 µM"],
  ["CCNC(=O)O/N=C1/C=C2CC[C@@H]3C(CC[C@@]4(C)C3CC[C@@H]4OC(=O)NCC)[C@@]2(C)CC1 (stereo partly drawn)", "5.15 µM"],
  ["CCCCCCCCCCCC1=C(O)C(=O)C=C(O)C1=O", "35.4 µM"],
  ["COC(=O)C1=C(C)N(NC(=O)Nc2ccccc2)C2(N)N(NC(=O)Nc3ccccc3)C(C)=C(C(=O)OC)C12C(=O)OC (stereo not drawn)", "> 100 µM"],
  ["Cc1ccc(C)c(C(=O)CC2OC(O)C(Cl)C2Cl)c1 (stereo not drawn)", "> 100 µM"],
  ["CCCCCCCCCCCCCCCC(=O)NCC(OCC)OCC", "> 100 µM"]
]}

* * *

tested on: SF-268 CNS; assay: NCI tumour cell line growth inhibition, 48 h
Below, each entry is listed alongside its reported TGI.

{"columns": ["MOLECULE", "EXPERIMENTAL SYSTEM", "TGI"],
 "data": [
  ["CC(=O)OC1C(C)OC(OC2C[C@](O)(C(C)=O)Cc3c(O)c4c(c(O)c32)C(=O)c2ccccc2C4=O)C(F)C1OC(C)=O (stereo not given in full)", "SF-268 CNS", "24.6 µM"],
  ["O=C(CCc1ccccc1)NCCc1ccc(O)c(O)c1", "SF-268 CNS", "> 100 µM"],
  ["CC(C)C12CCC3(CCC4C(C)(C(=O)O)CCCC4(C)C3C1)C(CN)C2 (stereo not given)", "SF-268 CNS", "> 100 µM"],
  ["COC(=O)C1=C(C)C(=O)C2(CCCCCC2C(=O)OC)C1 (stereo not given)", "SF-268 CNS", "> 100 µM"],
  ["COC(=O)C1=C(C)N(NC(=O)Nc2ccccc2)C2(N)N(NC(=O)Nc3ccccc3)C(C)=C(C(=O)OC)C12C(=O)OC (stereo not given)", "SF-268 CNS", "> 100 µM"],
  ["FC(F)(Sc1nc2ccccc2[nH]1)c1nc2ccccc2o1", "SF-268 CNS", "> 100 µM"],
  ["CCCCCCCCCCCC1=C(O)C(=O)C=C(O)C1=O", "SF-268 CNS", "18 µM"],
  ["CCOC(=O)c1ccc(-c2cccs2)[nH]1", "SF-268 CNS", "> 100 µM"],
  ["Cc1c(C(=O)C/C(=N/NC(=O)CC#N)C(N)=O)[n+](=O)c2ccccc2n1[O-]", "SF-268 CNS", "> 100 µM"],
  ["O=C1COc2cc3c(cc2N1)SCC(=O)N3", "SF-268 CNS", "> 100 µM"]
]}
